assay: Dissociation constant against beta adrenergic receptor
Reported endpoint: Kd (nM)
Numeric only. Scale: nM

*Q* Returns the measured Kd for the input compound. Input: CC(C)NCC(O)COc1cccc2[nH]c3ccccc3c12 (stereo unspecified) [CARAZOLOL]
*A* 0.1
